Reported values of TGI for individual entries
# System: T-47D breast
# test summary: NCI tumour cell line growth inhibition, 48 h

Below, 5 compounds whose answers are already recorded.
[[record]]
compound = "CCCCN(CCCC)Cc1cc(Nc2ccnc3cc(Cl)ccc23)ccc1O"
target_system = "T-47D breast"
readout_name = "TGI"
obs_value = "> 100 µM"

[[record]]
compound = "O=C(O)CC(Cc1ccccc1Cl)C(=O)O (stereo unspecified)"
target_system = "T-47D breast"
readout_name = "TGI"
obs_value = "> 100 µM"

[[record]]
compound = "CCOC(=O)c1c(C)n(Cc2ccc(Cl)cc2Cl)c2c1cc(O)c1[nH]c3c(c12)CCCC3"
target_system = "T-47D breast"
readout_name = "TGI"
obs_value = "> 100 µM"

[[record]]
compound = "C=C1CCC2C3(C)COC(C)(C)OC3CCC2(C)C1C/C=C1/C(=O)OCC1OC(C)=O (stereo unspecified)"
target_system = "T-47D breast"
readout_name = "TGI"
obs_value = "11.5 µM"

[[record]]
compound = "COc1ccc2c(c1)C(=O)/C(=C/c1cccc(OCC(=O)c3ccccc3)c1)CC2"
target_system = "T-47D breast"
readout_name = "TGI"
obs_value = "> 100 µM"


Bench note: what TGI did O=c1[nH]cc(NCCCl)c(=O)[nH]1 show? > 100 µM
